Reference for the values: patent US8183262B2

The reader will find reported melting point values listed item by item below.

mol smiles | melting point [°C]
Cc1cc(-c2ccc(C(F)(F)F)cc2)cc(-c2ccnc(-c3cccc(NS(C)(=O)=O)c3)c2)n1 | 196
Nc1cc(-c2noc(-c3nc(-c4ccc(Cl)cc4)cc(C(F)(F)F)n3)n2)ccn1 | 223.5
OCc1ccc(-c2cccc(-c3nc(-c4ccc(C(F)(F)F)cc4)cc(C(F)(F)F)n3)c2)cc1 | 171
CC(C)(C)NS(=O)(=O)c1ccc(-c2cc(-c3cc(C(F)(F)F)cc(-c4ccc(C(F)(F)F)cc4)n3)ccn2)s1 | 220
Nc1ccc(-c2cccc(-c3cc(-c4ccc(Cl)cc4)cc(C(F)(F)F)n3)c2)cn1 | 172
Cc1cc(-c2cc(C(F)(F)F)nc(-c3ccnc(-c4ccc(S(N)(=O)=O)s4)c3)n2)ccc1Cl | 280

====

# melting point values compiled below
result type: melting point (°C)

molecule | unit abbrev | endpoint result
Cc1cc(-c2cc(C(F)(F)F)nc(-c3nc(-c4ccc(N)nc4)no3)n2)ccc1C(F)(F)F [Example 130] | °C | 223
Cc1c(-c2ccc(N)nc2)ncn1-c1nc(-c2ccc(C(F)(F)F)cc2)cc(C(F)(F)F)n1 [Example 154] | °C | 252
CCOc1cc(-c2cc(C(F)(F)F)nc(-c3nc(-c4ccc(S(N)(=O)=O)cc4)no3)n2)ccc1C(F)(F)F [Example 89] | °C | 250.5
Cc1cc(-c2ccc(C(F)(F)F)cc2)cc(-c2nc(-c3cccc(S(=O)(=O)NC(C)(C)C)c3)cs2)n1 [Example 263] | °C | 196
CCOc1cc(-c2cc(C(F)(F)F)nc(-c3nc(-c4ccc(N)nc4)no3)n2)ccc1C(F)(F)F [Example 90] | °C | 216
Cc1cc(-c2ccc(C(F)(F)F)cc2)cc(-c2ccnc(-c3cnc(N)nc3)n2)n1 [Example 240] | °C | 264
Cc1cc(-c2ccc(Cl)c(Cl)c2)nc(-n2cnc(-c3cnc(N)nc3)c2)n1 [Example 144] | °C | 255.5

====

mol smiles | melting point / °C
Cc1cc(-c2ccc(C(F)(F)F)cc2)cc(-c2cccc(-c3cccc(S(=O)(=O)N4CCC4)c3)n2)n1 | 158
O=S(=O)(NCC1CC1)c1cccc(-c2cc(-c3nc(-c4ccc(C(F)(F)F)cc4)cc(C(F)(F)F)n3)ccn2)c1 | 133.5
CCC(=O)NS(=O)(=O)c1cccc(-c2cc(-c3nc(-c4ccc(C(F)(F)F)cc4)cc(C(F)(F)F)n3)ccn2)c1 | 144
CN(C)S(=O)(=O)c1cccc(-c2cc(-c3nc(-c4ccc(C(F)(F)F)cc4)cc(C(F)(F)F)n3)ccn2)c1 | 225

====

- measurement target: rat mGlu2 receptor (Rattus norvegicus, UniProt P31421)
- Sequence (P31421 19-872): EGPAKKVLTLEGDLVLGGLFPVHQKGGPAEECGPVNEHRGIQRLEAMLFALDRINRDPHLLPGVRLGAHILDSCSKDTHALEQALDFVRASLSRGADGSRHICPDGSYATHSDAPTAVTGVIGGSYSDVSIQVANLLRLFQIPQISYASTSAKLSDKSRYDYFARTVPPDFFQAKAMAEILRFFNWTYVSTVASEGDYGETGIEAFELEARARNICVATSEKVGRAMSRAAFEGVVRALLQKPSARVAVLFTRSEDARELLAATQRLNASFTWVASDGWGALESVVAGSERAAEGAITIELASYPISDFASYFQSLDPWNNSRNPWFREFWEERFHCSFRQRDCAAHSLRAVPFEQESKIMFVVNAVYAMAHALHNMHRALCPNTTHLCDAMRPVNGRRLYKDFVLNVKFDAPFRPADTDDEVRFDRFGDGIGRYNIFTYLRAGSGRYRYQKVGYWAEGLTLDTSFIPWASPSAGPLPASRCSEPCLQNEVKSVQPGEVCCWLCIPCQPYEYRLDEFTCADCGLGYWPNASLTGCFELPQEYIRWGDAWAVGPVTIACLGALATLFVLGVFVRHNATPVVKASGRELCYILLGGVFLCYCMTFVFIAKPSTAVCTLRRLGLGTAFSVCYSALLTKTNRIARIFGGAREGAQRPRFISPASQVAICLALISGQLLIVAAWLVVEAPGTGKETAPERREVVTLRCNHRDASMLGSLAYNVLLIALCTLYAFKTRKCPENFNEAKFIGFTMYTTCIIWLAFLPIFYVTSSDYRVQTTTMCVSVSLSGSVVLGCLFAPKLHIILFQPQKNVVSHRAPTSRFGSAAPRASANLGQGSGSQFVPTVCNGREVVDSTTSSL
Lab note - cut at 40 nM for Ki: y if strictly below, n if not.

compound | measurement target | group
Cc1cc(-c2ccc(C(F)(F)F)cc2)cc(-c2cccc(C#N)c2)n1 [Example 242] | rat mGlu2 receptor (Rattus norvegicus, UniProt P31421) | n
Nc1cc(-c2noc(-c3nc(-c4ccc(Cl)cc4)cc(C(F)(F)F)n3)n2)ccn1 [Example 8] | rat mGlu2 receptor (Rattus norvegicus, UniProt P31421) | n
Nc1ccc(-c2cccc(-c3nc(-c4ccc(C(F)(F)F)cc4)cc(C(F)(F)F)n3)c2)cn1 [Example 26] | rat mGlu2 receptor (Rattus norvegicus, UniProt P31421) | y
NS(=O)(=O)c1cccc(-c2noc(-c3cc(C(F)(F)F)cc(-c4ccc(C(F)(F)F)cc4)n3)n2)c1 [Example 243] | rat mGlu2 receptor (Rattus norvegicus, UniProt P31421) | y
O=S(=O)(c1cccc(-c2cc(-c3nc(-c4ccc(C(F)(F)F)cc4)cc(C(F)(F)F)n3)ccn2)c1)N1CCOCC1 [Example 377] | rat mGlu2 receptor (Rattus norvegicus, UniProt P31421) | y
Cc1cc(-c2cccc(-c3nc(-c4ccc(C(F)(F)F)cc4)cc(C(F)(F)F)n3)c2)cc(C)n1 [Example 42] | rat mGlu2 receptor (Rattus norvegicus, UniProt P31421) | n
Nc1ccc(-c2noc(-c3nc(-c4ccc(C(F)(F)F)cc4)cc(C(F)(F)F)n3)n2)cn1 [Example 11] | rat mGlu2 receptor (Rattus norvegicus, UniProt P31421) | y
FC(F)(F)c1ccc(-c2cc(C(F)(F)F)nc(-n3ccnc3)n2)cc1 [Example 3] | rat mGlu2 receptor (Rattus norvegicus, UniProt P31421) | n
